Details: cynomolgus monkey, in vivo, sc, 40 mg/kg

substance	Oligonucleotide concentration, Kidney
ISIS 584269: antisense compound targeted to human AR (CCTTATGGATGCTGCT; 3-10-3 (S)-cEt gapmer, further chemistry not given here)	2823 μg/g tissue
TTGATTTAATGGTTGC [ISIS 579671] (cEt/MOE gapmer chemistry, further chemistry not given here)	2576 μg/g tissue
TGATTTAATGGTTGCA [ISIS 569236] (cEt/MOE gapmer chemistry, further chemistry not given here)	1282 μg/g tissue
TGATTTAATGGTTGCA [ISIS 569221] (cEt/MOE gapmer chemistry, further chemistry not given here)	1372 μg/g tissue
ISIS 584468: antisense compound targeted to human AR (CATTGTACTATGCCAG; 3-10-3 (S)-cEt gapmer, further chemistry not given here)	2441 μg/g tissue

---

Test system: AR mRNA
Test: Dose-dependent antisense inhibition of human AR in HuVEC cells (electroporation, qRT-PCR RTS3559, IC50)
Assay type: cell-based
Conditions: 31.25 nM; HuVEC, ~16 h; Table 6
Oligonucleotides are written 5' to 3', each unit as a sugar letter and its base; * is a phosphorothioate linkage, no mark a phosphodiester; rarer units and linkages stand in square brackets, end groups in braces. Plain capitals give the bases only. e = 2'-O-(2-methoxyethyl) (MOE); k = constrained ethyl (cEt); [5mC] = 5-methylcytosine; d = 2'-deoxy (DNA)
readout label: percent inhibition of AR (%)

> print(dat)
                                  substance  measured.number
1  560098 (kT*kG*kA*dT*dT*dT*dA*dA*dT*dG*dG*dT*dT*kG*k[5mC]*kA; further chemistry not given here) [compound 560098]               20
2  549459 (kA*kT*kG*dG*dT*dT*dG*dA*dT*dT*dT*dA*dA*kT*kG*kG) [compound 549459]               16
3  560071 (eT*eG*eG*eT*eT*dG*dA*dT*dT*dT*dA*dA*dT*dG*dG*eT*eT*eG*e[5mC]*eA) [compound 560071]                7
4  549458 (kG*kT*kT*dG*dA*dT*dT*dT*dA*dA*dT*dG*dG*kT*kT*kG) [compound 549458]               15
5  549457 (kT*kT*kG*dA*dT*dT*dT*dA*dA*dT*dG*dG*dT*kT*kG*k[5mC]) [compound 549457]               40

---

# key: entry, value: ALT
Conditions: cynomolgus monkey, in vivo, sc, 40 mg/kg

substance	ALT, IU/L
ISIS 583918: antisense compound targeted to human AR (AGTCGCGACTCTGGTA; 3-10-3 (S)-cEt gapmer, further chemistry not given here)	75
ISIS 584468: antisense compound targeted to human AR (CATTGTACTATGCCAG; 3-10-3 (S)-cEt gapmer, further chemistry not given here)	46
ISIS 584269: antisense compound targeted to human AR (CCTTATGGATGCTGCT; 3-10-3 (S)-cEt gapmer, further chemistry not given here)	75

---

Tested on: AR mRNA
Test: Dose-dependent antisense inhibition of human AR in HuVEC cells (electroporation, qRT-PCR RTS3559, IC50)
Type: cell-based
Conditions: Table 32; 187.5 nM, HuVEC, electroporation, approximately 16 hours
Oligonucleotides are written 5' to 3', each unit as a sugar letter and its base; * is a phosphorothioate linkage, no mark a phosphodiester; rarer units and linkages stand in square brackets, end groups in braces. Plain capitals give the bases only. k = constrained ethyl (cEt); [5mC] = 5-methylcytosine; d = 2'-deoxy (DNA)
# key: entry, value: percent inhibition of AR, 187.5 nM
readout label: percent inhibition of AR, 187.5 nM

> print(dat)
                                   substance                       readout.label  result
 1  583835 (kG*kA*kA*dG*d[5mC]*dT*dG*dT*dT*d[5mC]*d[5mC]*d[5mC]*d[5mC]*kT*kG*kG; antisense) [compound 583835]  percent inhibition of AR, 187.5 nM     55%
 2  583850 (kG*kG*kA*d[5mC]*dG*d[5mC]*dA*d[5mC]*dA*dG*d[5mC]*dG*dG*kG*kT*kG; antisense) [compound 583850]  percent inhibition of AR, 187.5 nM     21%
 3  583880 (kT*kT*kT*dG*dG*dT*dG*dT*dA*dA*d[5mC]*d[5mC]*dT*k[5mC]*k[5mC]*k[5mC]; antisense) [compound 583880]  percent inhibition of AR, 187.5 nM     52%
 4  583759 (antisense kG*k[5mC]*kT*dG*dT*dT*d[5mC]*d[5mC]*dT*d[5mC]*dA*dT*d[5mC]*k[5mC]*kA*kG) [compound 583759]  percent inhibition of AR, 187.5 nM     28%
 5  583836 (k[5mC]*k[5mC]*kG*dA*dA*dG*d[5mC]*dT*dG*dT*dT*d[5mC]*d[5mC]*k[5mC]*k[5mC]*kT; antisense) [compound 583836]  percent inhibition of AR, 187.5 nM     27%
 6  583787 (antisense kG*kG*kT*dG*d[5mC]*dT*dG*dG*d[5mC]*d[5mC]*dT*d[5mC]*dG*k[5mC]*kT*k[5mC]) [compound 583787]  percent inhibition of AR, 187.5 nM     31%
 7  583856 (kA*kA*k[5mC]*d[5mC]*dT*dT*dT*dG*d[5mC]*dA*dT*dT*d[5mC]*kG*kG*k[5mC]; antisense) [compound 583856]  percent inhibition of AR, 187.5 nM     55%
 8  583749 (antisense kA*kG*kG*dT*dG*d[5mC]*dT*dG*d[5mC]*dG*d[5mC]*dT*d[5mC]*kG*k[5mC]*kG) [compound 583749]  percent inhibition of AR, 187.5 nM     40%
 9  583834 (kA*kG*k[5mC]*dT*dG*dT*dT*d[5mC]*d[5mC]*d[5mC]*d[5mC]*dT*dG*kG*kA*k[5mC]; antisense) [compound 583834]  percent inhibition of AR, 187.5 nM     54%
10  583855 (k[5mC]*k[5mC]*kT*dT*dT*dG*d[5mC]*dA*dT*dT*d[5mC]*dG*dG*k[5mC]*k[5mC]*kA; antisense) [compound 583855]  percent inhibition of AR, 187.5 nM     50%
11  549458 (kG*kT*kT*dG*dA*dT*dT*dT*dA*dA*dT*dG*dG*kT*kT*kG) [compound 549458]  percent inhibition of AR, 187.5 nM     58%
12  583881 (k[5mC]*k[5mC]*kT*dT*dT*dG*dG*dT*dG*dT*dA*dA*d[5mC]*k[5mC]*kT*k[5mC]; antisense) [compound 583881]  percent inhibition of AR, 187.5 nM     50%

Each recorded value in this set is attributed to patent USRE48461E1.
